molecules and their reported % Degradation At 0.3 μM
# subject_of_test: ERα (Homo sapiens)
# Construct: host or cells: MCF7
# Sequence (P03372 1-595): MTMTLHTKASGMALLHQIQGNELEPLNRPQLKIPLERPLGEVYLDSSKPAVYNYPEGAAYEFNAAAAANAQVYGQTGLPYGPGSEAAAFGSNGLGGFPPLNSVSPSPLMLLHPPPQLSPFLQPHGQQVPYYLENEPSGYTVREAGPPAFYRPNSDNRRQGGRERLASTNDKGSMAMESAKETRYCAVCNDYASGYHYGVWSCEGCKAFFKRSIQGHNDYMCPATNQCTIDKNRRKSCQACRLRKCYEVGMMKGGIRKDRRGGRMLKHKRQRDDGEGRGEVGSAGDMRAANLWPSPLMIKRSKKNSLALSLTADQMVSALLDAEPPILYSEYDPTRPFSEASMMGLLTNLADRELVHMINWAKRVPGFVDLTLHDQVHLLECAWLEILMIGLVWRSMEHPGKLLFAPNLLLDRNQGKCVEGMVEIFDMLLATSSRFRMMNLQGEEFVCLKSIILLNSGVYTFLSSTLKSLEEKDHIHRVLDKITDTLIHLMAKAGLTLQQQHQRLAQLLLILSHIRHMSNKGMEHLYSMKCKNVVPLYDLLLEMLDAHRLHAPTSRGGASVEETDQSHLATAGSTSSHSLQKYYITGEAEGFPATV
# assay_comment: Estrogen receptor degradation activity: breast cancer cell ERα in cell western assay (MCF7 cells)
# Format: cell-based
# condition_context: 0.3 μM, 4 hours, relative to fulvestrant 0.1 μM positive control

                                   molecule        measured_property  value_observed
0  Cc1c(C2=C(c3ccc(F)cc3F)CCCc3cc(C(=O)O)ccc32)ccc(C=C2CN(CCCF)C2)c1F.Cl  % Degradation At 0.3 μM             89%
1  [2H]C([2H])(CC(F)F)N1CC(=Cc2ccc(C3=C(c4ccc(Cl)cc4Cl)CCCc4cc(C(=O)O)ccc43)cc2)C1  % Degradation At 0.3 μM             90%
2  Cc1cc(C2=C(c3ccc(F)cc3F)CCCc3cc(C(=O)O)ccc32)cc(F)c1C=C1CN(CCCF)C1  % Degradation At 0.3 μM             92%

Tell me reported % Degradation At 0.3 μM for Cl.O=C(O)c1ccc2c(c1)SCCC(c1ccc(Cl)cc1Cl)=C2c1ccc(C=C2CN(CCCF)C2)cc1 , tested with ERα (Homo sapiens).
100%

Tell me reported % Degradation At 0.3 μM for O=C(O)c1ccc2c(c1)CCCC(c1ccc(F)c(C(F)(F)F)c1F)=C2c1ccc(C=C2CN(CCCF)C2)cc1 , tested with ERα (Homo sapiens).
93%

Tell me reported % Degradation At 0.3 μM for CCc1ccccc1C1=C(c2ccc(C=C3CN(CCCF)C3)cc2)c2ccc(C(=O)O)cc2CCC1 , tested with ERα (Homo sapiens).
92%

Tell me reported % Degradation At 0.3 μM for COc1cc(C2=C(c3ccc(C=C4CN(CCCF)C4)cc3)c3ccc(C(=O)O)cc3CCC2)c(F)cn1 , tested with ERα (Homo sapiens).
89%

Tell me reported % Degradation At 0.3 μM for Cc1cc(C2=C(c3ccc(C=C4CN(CCCF)C4)cc3)c3ccc(C(=O)O)cc3CCC2)cc(C(F)(F)F)c1 , tested with ERα (Homo sapiens).
85%

Tell me reported % Degradation At 0.3 μM for O=C(O)c1ccc2c(c1)CCCC(c1ccc(F)cc1F)=C2c1ccc(C=C2CN(CCCF)C2)c(F)c1F , tested with ERα (Homo sapiens).
92%

Tell me reported % Degradation At 0.3 μM for Cc1cc(Cl)ccc1C1=C(c2ccc(C=C3CN(CCCF)C3)cc2)c2ccc(C(=O)O)cc2CCC1 , tested with ERα (Homo sapiens).
98%

Tell me reported % Degradation At 0.3 μM for O=C(O)c1ccc2c(c1)CCCC(c1ccc(F)cc1Cl)=C2c1ccc(C=C2CN(CCCF)C2)cc1 , tested with ERα (Homo sapiens).
97%

Tell me reported % Degradation At 0.3 μM for Cc1ccc(C(F)(F)F)c(C2=C(c3ccc(C=C4CN(CCCF)C4)cc3)c3ccc(C(=O)O)cc3CCC2)c1 , tested with ERα (Homo sapiens).
94%

Tell me reported % Degradation At 0.3 μM for O=C(O)c1ccc2c(c1)CCCC(c1ccc3c(c1F)CCC3)=C2c1ccc(C=C2CN(CCCF)C2)cc1 , tested with ERα (Homo sapiens).
90%

Tell me reported % Degradation At 0.3 μM for O=C(O)c1ccc2c(c1)CCCC(C1CCOCC1)=C2c1ccc(C=C2CN(CCCF)C2)cc1 , tested with ERα (Homo sapiens).
91%

Tell me reported % Degradation At 0.3 μM for O=C(O)c1ccc2c(c1)CCCC(c1cccc3c1CCC3)=C2c1ccc(C=C2CN(CCC(F)F)C2)cc1 , tested with ERα (Homo sapiens).
98%

Tell me reported % Degradation At 0.3 μM for CC1CCc2cc(C(=O)O)ccc2C(c2ccc(C=C3CN(CCCF)C3)cc2)=C1c1ccc(Cl)cc1 (single isomer, unassigned) [Example 184] , tested with ERα (Homo sapiens).
90%

Tell me reported % Degradation At 0.3 μM for Cc1c(C2=C(c3ccc(C=C4CN(CCC(F)(F)F)C4)cc3)c3ccc(C(=O)O)cc3CCC2)ccc(Cl)c1F , tested with ERα (Homo sapiens).
90%

Tell me reported % Degradation At 0.3 μM for O=C(O)c1ccc2c(c1)CCCC(c1ncc(Cl)cc1C(F)(F)F)=C2c1ccc(C=C2CN(CCCF)C2)cc1 , tested with ERα (Homo sapiens).
93%

Tell me reported % Degradation At 0.3 μM for O=C(O)c1ccc2c(c1)CCCC(c1cc(Cl)cc(C(F)(F)F)c1)=C2c1ccc(C=C2CN(CCCF)C2)cc1 , tested with ERα (Homo sapiens).
81%

Tell me reported % Degradation At 0.3 μM for O=C(O)c1ccc2c(c1)CCCC(c1cccc(Cl)c1)=C2c1ccc(C=C2CN(CCCF)C2)cc1 , tested with ERα (Homo sapiens).
90%

Tell me reported % Degradation At 0.3 μM for COc1ccc(C(F)(F)F)cc1C1=C(c2ccc(C=C3CN(CCCF)C3)cc2)c2ccc(C(=O)O)cc2CCC1 , tested with ERα (Homo sapiens).
92%

Tell me reported % Degradation At 0.3 μM for CC1CCC(C2=C(c3ncc(C=C4CN(CCCF)C4)cc3F)c3ccc(C(=O)O)cc3CCC2)CC1 (mixture of isomers) , tested with ERα (Homo sapiens).
89%

Tell me reported % Degradation At 0.3 μM for Cc1cc(F)ccc1C1=C(c2cc(F)c(C=C3CN(CCCF)C3)cc2C)c2ccc(C(=O)O)cc2CCC1.Cl , tested with ERα (Homo sapiens).
93%

Tell me reported % Degradation At 0.3 μM for Cl.O=C(O)c1ccc2c(c1)CCCC(c1ccccc1C(F)(F)F)=C2c1ccc(C=C2CN(CCCF)C2)cc1 , tested with ERα (Homo sapiens).
92%

Attribution: patent US12612360B2
